Molecular target: T1, human mesotrypsin (catalytically active) (human, UniProt P35030 81-304)
T1 construct: mature; In the invasion assays it is the endogenous enzyme of PC3-M cells; also called active mesotrypsin; PRSS3 gene product
T1 sequence (looked up): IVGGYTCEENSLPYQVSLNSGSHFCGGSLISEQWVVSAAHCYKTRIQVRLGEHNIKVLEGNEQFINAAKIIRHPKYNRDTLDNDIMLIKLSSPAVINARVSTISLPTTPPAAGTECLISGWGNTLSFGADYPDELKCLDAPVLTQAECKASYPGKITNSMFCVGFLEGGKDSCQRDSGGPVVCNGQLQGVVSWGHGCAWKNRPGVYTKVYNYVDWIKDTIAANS
Assay: inhibition of mesotrypsin cleavage of Z-GPR-pNA; slow tight-binding fit (Equation 2)
pKi: −log10 of the molar value.
Label yes when pKi is at or above 9; otherwise label no.

>  <Binder>
APPI-M17G (SEQ ID NO: 18), soluble (designed binder, not shown: AvrII site residues and C-terminal HIS6 tag) EVCSEQAETGPCRAGISRWYFDVTEGKCAPFFYGGCGGNRNNFDTEEYCMAVCGSAI

>  <Classification>
no

$$$$
>  <Binder>
APPI-M17G/I18F/F34V (SEQ ID NO: 8), soluble (designed binder, also called APPI 3M; APPI^3M; not shown: AvrII site residues and C-terminal HIS6 tag) EVCSEQAETGPCRAGFSRWYFDVTEGKCAPFVYGGCGGNRNNFDTEEYCMAVCGSAI

>  <Classification>
yes

$$$$
>  <Binder>
APPI-M17G/I18F (SEQ ID NO: 22), soluble (designed binder, not shown: AvrII site residues and C-terminal HIS6 tag) EVCSEQAETGPCRAGFSRWYFDVTEGKCAPFFYGGCGGNRNNFDTEEYCMAVCGSAI

>  <Classification>
yes

$$$$

API: the following record is the query input.
Tell me whether pKi is at least 9 here: APPI-I18F/F34V (SEQ ID NO: 20), soluble (designed binder, not shown: AvrII site residues and C-terminal HIS6 tag) EVCSEQAETGPCRAMFSRWYFDVTEGKCAPFVYGGCGGNRNNFDTEEYCMAVCGSAI no
